Assign Ki to each entry below.

What value of Ki on c-Met (Homo sapiens, UniProt P08581) does Cc1ccnc(-c2c(N)nn3cc(-c4ccncc4)cnc23)c1 [Compound V-133] have?
< 500 nM

Under c-Met (Homo sapiens, UniProt P08581): Ki value of Cc1cnc2c(-c3cc(NC4CCCCC4)ncn3)c(N)nn2c1 [Compound V-291] ?
< 500 nM

Notebook: pull reported Ki for c-Met (Homo sapiens, UniProt P08581), entry Nc1nn2cc(N3CCC[C@@H]3CN3CCCC3)cnc2c1-c1ccccn1 [Compound V-272]
500 to 5000 nM

Any idea what Ki came out for CC(C)N1CCN(c2ccc(-c3cnc4c(-c5ccccn5)c(N)nn4c3)cc2)CC1 [Compound V-51] on c-Met (Homo sapiens, UniProt P08581)?
< 500 nM

Give c-Met (Homo sapiens, UniProt P08581) Ki for COc1ccc(-c2cnc3c(N)c(N)nn3c2)cc1 [Compound V-240]
500 to 5000 nM

Form field - read-out: Ki; system: c-Met (Homo sapiens, UniProt P08581); submitted item: CN(CCN)C(=O)c1cccc(-c2cnc3c(-c4ccccn4)c(N)nn3c2)n1 [Compound V-120]
Sequence (P08581 25-1390): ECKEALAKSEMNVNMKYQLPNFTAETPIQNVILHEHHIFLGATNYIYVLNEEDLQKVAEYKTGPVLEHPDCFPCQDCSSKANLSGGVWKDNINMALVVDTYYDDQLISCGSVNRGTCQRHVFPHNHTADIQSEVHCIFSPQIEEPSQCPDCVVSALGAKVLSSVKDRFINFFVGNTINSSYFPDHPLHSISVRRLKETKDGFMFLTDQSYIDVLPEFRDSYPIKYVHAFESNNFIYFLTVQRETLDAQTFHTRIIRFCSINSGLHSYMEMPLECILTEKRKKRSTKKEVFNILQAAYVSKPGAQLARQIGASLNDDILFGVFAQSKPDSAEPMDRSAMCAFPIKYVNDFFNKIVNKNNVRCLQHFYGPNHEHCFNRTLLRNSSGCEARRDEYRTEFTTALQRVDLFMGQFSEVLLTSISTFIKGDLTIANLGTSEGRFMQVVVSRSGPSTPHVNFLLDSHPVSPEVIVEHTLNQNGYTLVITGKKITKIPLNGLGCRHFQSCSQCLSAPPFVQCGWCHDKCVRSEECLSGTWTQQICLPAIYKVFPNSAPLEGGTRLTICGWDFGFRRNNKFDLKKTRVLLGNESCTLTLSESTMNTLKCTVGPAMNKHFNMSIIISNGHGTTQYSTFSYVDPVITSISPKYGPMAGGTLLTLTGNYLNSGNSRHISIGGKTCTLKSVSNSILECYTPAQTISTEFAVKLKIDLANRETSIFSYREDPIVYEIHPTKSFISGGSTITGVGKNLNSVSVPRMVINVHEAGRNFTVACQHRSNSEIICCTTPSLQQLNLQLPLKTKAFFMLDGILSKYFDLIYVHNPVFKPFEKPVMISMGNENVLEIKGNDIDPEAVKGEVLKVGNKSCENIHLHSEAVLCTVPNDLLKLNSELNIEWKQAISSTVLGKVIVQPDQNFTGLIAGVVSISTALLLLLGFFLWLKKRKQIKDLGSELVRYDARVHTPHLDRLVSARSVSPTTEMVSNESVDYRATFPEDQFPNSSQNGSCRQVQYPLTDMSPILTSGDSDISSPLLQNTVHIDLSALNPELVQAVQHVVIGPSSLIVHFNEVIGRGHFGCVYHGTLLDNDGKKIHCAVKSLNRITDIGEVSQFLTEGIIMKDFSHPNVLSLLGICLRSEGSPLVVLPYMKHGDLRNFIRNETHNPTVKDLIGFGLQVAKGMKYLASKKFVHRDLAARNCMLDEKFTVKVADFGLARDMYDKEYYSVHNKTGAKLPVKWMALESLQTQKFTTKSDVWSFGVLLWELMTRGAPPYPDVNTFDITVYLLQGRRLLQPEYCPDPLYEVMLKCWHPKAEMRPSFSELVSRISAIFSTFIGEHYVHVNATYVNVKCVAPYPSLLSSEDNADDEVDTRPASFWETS
< 500 nM

Requested read-out Ki, target or system c-Met (Homo sapiens, UniProt P08581), entry CCN1CCN(C(=O)c2ccc(-c3cnc4c(-c5ccccn5)c(N)nn4c3)nc2)CC1 [Compound V-63]
< 500 nM

Hi! What's the reported Ki for CCCCNC(=O)c1cccc(-c2cnc3c(-c4ccccn4)c(N)nn3c2)n1 [Compound V-109] on c-Met (Homo sapiens, UniProt P08581)?
< 500 nM

For the record Nc1nn2cc(-c3ccc(C(=O)N4CCC(CCO)CC4)cn3)cnc2c1-c1ccccn1 [Compound V-83] , what value of Ki is listed for c-Met (Homo sapiens, UniProt P08581)?
< 500 nM

====

pKi: −log10 of the molar value.
REPORTED ENDPOINT: pKi

Item CC(C)(C)OCc1ccccc1-c1cnc2c(-c3ccccn3)c(N)nn2c1 [Compound V-49] with JAK3 (Homo sapiens, UniProt P52333) - pKi?
< 5.30

Find pKi (JAK3 (Homo sapiens, UniProt P52333)) for the entry Nc1nn2cc(-c3ccc(NCCCC4=NCC=N4)nc3)cnc2c1-c1ccccn1 [Compound V-161]
< 5.30

Please provide the recorded pKi for COCCNc1ccc(-c2cnc3c(-c4ccccn4)c(N)nn3c2)cn1 [Compound V-156] , tested on JAK3 (Homo sapiens, UniProt P52333).
Sequence (P52333 whole entry, species assumed): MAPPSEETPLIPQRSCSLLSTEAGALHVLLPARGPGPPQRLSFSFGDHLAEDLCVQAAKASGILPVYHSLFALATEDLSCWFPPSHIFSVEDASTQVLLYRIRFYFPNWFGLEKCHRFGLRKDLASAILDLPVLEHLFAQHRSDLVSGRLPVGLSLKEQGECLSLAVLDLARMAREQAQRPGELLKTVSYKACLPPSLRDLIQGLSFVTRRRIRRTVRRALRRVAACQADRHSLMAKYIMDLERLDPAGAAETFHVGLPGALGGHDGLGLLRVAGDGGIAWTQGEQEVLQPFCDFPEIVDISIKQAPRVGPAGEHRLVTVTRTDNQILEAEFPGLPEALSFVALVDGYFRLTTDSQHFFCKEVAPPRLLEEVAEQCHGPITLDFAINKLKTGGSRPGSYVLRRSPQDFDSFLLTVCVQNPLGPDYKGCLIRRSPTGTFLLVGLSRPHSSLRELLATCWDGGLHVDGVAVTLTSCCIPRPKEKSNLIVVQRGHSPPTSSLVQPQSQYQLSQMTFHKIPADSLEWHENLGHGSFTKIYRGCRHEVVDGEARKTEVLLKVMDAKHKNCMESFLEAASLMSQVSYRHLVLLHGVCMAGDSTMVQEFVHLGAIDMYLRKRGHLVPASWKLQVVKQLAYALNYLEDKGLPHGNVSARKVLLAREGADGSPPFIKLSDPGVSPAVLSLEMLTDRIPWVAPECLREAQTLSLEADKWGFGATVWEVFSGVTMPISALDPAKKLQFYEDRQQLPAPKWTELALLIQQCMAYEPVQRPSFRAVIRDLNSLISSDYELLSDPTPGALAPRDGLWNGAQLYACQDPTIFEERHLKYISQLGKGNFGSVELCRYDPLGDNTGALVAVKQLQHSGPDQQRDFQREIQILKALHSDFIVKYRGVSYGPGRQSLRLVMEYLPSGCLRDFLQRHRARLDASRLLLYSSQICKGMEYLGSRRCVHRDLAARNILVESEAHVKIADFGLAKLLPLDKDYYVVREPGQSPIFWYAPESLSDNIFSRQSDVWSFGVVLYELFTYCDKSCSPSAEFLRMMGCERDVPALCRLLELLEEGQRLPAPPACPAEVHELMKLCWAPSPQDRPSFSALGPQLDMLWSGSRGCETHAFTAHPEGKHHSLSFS
< 5.30

====

Biological target: Itk (Homo sapiens, UniProt Q08881)
Sequence (Q08881 1-620): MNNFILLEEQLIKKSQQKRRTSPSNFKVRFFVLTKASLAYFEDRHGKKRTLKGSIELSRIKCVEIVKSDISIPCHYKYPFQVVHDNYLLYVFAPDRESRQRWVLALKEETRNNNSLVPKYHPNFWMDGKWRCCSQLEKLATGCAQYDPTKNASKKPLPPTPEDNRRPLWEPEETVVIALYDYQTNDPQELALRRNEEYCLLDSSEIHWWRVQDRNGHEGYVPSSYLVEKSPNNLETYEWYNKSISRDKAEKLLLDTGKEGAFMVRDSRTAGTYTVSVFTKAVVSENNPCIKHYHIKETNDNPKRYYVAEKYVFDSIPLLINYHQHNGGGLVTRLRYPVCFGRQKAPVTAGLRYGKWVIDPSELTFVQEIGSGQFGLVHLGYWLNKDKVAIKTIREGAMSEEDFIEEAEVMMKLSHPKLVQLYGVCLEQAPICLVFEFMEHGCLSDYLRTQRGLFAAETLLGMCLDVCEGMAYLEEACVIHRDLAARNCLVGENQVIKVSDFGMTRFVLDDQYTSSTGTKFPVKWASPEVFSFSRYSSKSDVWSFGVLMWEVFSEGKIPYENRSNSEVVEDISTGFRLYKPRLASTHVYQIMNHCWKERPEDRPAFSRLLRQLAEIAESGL
REPORTED ENDPOINT: Ki

Reported Ki for NC1NN2C=C(c3cccc(CN4CC[C@H](N)C4)c3)C=NC2=C1c1ccccn1 (some centres unmarked) [Compound V-227] : what is it?
< 500 nM

Fill in the blank: the reported Ki of Nc1nn2cc(-c3ccccc3OC(F)F)cnc2c1-c1ccccn1 [Compound V-19] is ____.
500 to 5000 nM

If you can, please state the reported Ki value of CN1CCCN(c2ccc(-c3cnc4c(-c5ccccn5)c(N)nn4c3)cn2)CC1 [Compound V-160] .
500 to 5000 nM

Query (compound): CN(C)CCN(Cc1ccccc1)C(=O)c1c(N)nn2cc(-c3ccncn3)cnc12 [Compound V-35] ; field requested: Ki
500 to 5000 nM

So what does the record say about Ki for CN1CCC(N(C)C(=O)c2cccc(-c3cnc4c(-c5ccccn5)c(N)nn4c3)n2)CC1 [Compound V-101] ?
500 to 5000 nM

Fill in the blank: the reported Ki of N#Cc1cccc(-c2cnc3c(-c4ccccn4)c(N)nn3c2)c1 [Compound V-197] is ____.
< 500 nM

Which Ki is listed for Nc1nn2cc(-c3ccncn3)cnc2c1C(=O)N1CCC[C@H]1CN1CCCC1 [Compound V-34] ?
500 to 5000 nM

Looking for the measured Ki of NCc1cccc(-c2cnc3c(-c4ccccn4)c(N)nn3c2)c1 [Compound V-202] , can you help?
< 500 nM

====

Field: Ki. Provide a value for each of the compounds that follow.

Notebook: pull reported Ki for c-Met (Homo sapiens), entry "CN(C)CCNC(=O)c1cccc(-c2cnc3c(-c4ccccn4)c(N)nn3c2)c1"
< 500 nM

I'm curious: which Ki was measured for "NCc1ccc(-c2cnc3c(-c4ccccn4)c(N)nn3c2)cc1" tested on c-Met (Homo sapiens)?
< 500 nM

Report Ki for "CCN1CCN(c2ccc(-c3cnc4c(-c5ccccn5)c(N)nn4c3)cn2)CC1" tested on c-Met (Homo sapiens).
< 500 nM

What is its Ki for c-Met (Homo sapiens)? Entry: "CCN(C)c1ccc(-c2cnc3c(-c4ccccn4)c(N)nn3c2)cn1"
< 500 nM

Notebook: pull reported Ki for c-Met (Homo sapiens), entry Cc1cnc2c(-c3cc(NC4CCN(Cc5ccccc5)C4)ncn3)c(N)nn2c1 (stereo not shown)
< 500 nM

So what Ki did "C#CCN(C)C(=O)c1ccc(-c2cnc3c(-c4ccccn4)c(N)nn3c2)nc1" get with c-Met (Homo sapiens)?
< 500 nM

# get_value(readout= Ki, system= c-Met (Homo sapiens)) for "CNCc1ccc(-c2cnc3c(-c4ccccn4)c(N)nn3c2)cc1"
< 500 nM

Requested read-out Ki, target or system c-Met (Homo sapiens), entry "CCN(CCC#N)C(=O)c1cccc(-c2cnc3c(-c4ccccn4)c(N)nn3c2)n1"
< 500 nM

Reported Ki for c-Met (Homo sapiens), given "Nc1nn2cc(-c3ccc(N4CCC(N5CCCC5)CC4)nc3)cnc2c1-c1ccccn1" ?
< 500 nM

Form entry - test system: c-Met (Homo sapiens); read-out: Ki; compound: "CN1CCCN(c2cc(-c3cnc4c(-c5ccccn5)c(N)nn4c3)ccn2)CC1"
500 to 5000 nM

Give the reported Ki for "Cc1cnc2c(-c3cc(NC4CCN(Cc5ccccc5)CC4)ncn3)c(N)nn2c1" (system: c-Met (Homo sapiens)).
< 500 nM

Look up Ki with c-Met (Homo sapiens) for this compound: "Nc1nn2cc(-c3ccc(N4CCCCC4)nc3)cnc2c1-c1ccccn1"
500 to 5000 nM

Value wanted: Ki (c-Met (Homo sapiens)) of entry "CN1CCCN(c2ncccc2-c2cnc3c(-c4ccccn4)c(N)nn3c2)CC1"
500 to 5000 nM
